Please respond with reported Emax for every item in the list.
- Measured on: Ghrelin receptor (Homo sapiens, UniProt Q92847)
- Sequence (Q92847 whole entry): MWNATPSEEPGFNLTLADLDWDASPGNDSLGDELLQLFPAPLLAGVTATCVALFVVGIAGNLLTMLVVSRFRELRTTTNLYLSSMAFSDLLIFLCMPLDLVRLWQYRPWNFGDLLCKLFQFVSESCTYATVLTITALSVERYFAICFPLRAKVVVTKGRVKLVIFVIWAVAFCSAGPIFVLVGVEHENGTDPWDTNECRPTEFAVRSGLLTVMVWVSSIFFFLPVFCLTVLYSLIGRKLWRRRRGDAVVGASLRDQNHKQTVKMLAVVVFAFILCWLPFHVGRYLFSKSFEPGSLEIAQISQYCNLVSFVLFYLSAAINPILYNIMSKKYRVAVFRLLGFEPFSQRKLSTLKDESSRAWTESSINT
- Assay procedure: Receptor Selection and Amplification Technology (R-SAT) assay
- Format: cell-based
- Parameters: expressed in transfected cells; host or cells: NIH3T3
- Measurement conditions: read-out: RSAT Eff(%)
Please respond with the number in % and leave the unit unwritten.

Provide Emax, tested on Ghrelin receptor (Homo sapiens, UniProt Q92847), for CCCCC(=O)c1cn(CCCN2CCC(Oc3ccc(F)cc3)CC2)c2ccc(OC)cc12 .
91

Provide Emax, recorded with Ghrelin receptor (Homo sapiens, UniProt Q92847), of CCCCC[C@H]1C[C@H]2CC[C@@H](C1)N2CCCn1cc(C(=O)NCc2cccc(C)c2)c2cccc(OC)c21
90

Under Ghrelin receptor (Homo sapiens, UniProt Q92847): report Emax of COc1cccc2c(C(=O)NCc3cccc(C)c3)cn(CCCN3CCN(CCOc4ccccc4)CC3)c12 .
89
